Target: A2-adenosine receptors (Rattus norvegicus)
Construct: rat striatal membranes; from tissue; host or cells: rat striatal membranes
Sequence (P30543 whole entry): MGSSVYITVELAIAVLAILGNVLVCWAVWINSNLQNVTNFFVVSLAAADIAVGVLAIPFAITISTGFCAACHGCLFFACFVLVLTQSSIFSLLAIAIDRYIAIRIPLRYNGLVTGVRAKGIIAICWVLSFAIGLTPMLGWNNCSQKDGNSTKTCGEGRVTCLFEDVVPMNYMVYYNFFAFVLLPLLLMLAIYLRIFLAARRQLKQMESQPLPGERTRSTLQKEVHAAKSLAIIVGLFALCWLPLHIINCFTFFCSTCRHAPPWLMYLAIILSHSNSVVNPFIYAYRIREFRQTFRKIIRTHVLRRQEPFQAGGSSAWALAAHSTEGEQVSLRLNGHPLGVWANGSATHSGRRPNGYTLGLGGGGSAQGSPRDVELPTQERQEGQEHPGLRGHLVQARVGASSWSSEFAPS
Test: Inhibition of binding of [3H]CGS21680 to A2-adenosine receptors in rat striatal membranes
Conditions: read-out: Ki, inhibition of binding of [3H]CGS21680 at A2-receptors
pKi: −log10 of the molar value.
quantity.measured: pKi

{"structure.smiles": "CCNC(=O)[C@H]1O[C@@H](n2cnc3c(N)nc(NCCc4ccc(CCC(=O)NCCNC(=O)Cc5cccs5)cc4)nc32)[C@H](O)[C@@H]1O", "quantity.measured": "pKi", "data.value": 7.82}
{"structure.smiles": "CCNC(=O)[C@H]1O[C@@H](n2cnc3c(N)nc(NCCc4ccc(CCC(=O)NCCNC(=O)CCc5ccc(O)cc5)cc4)nc32)[C@H](O)[C@@H]1O", "quantity.measured": "pKi", "data.value": 7.89}
{"structure.smiles": "CCNC(=O)[C@H]1O[C@@H](n2cnc3c(N)nc(NCCc4ccc(CCC(=O)NCCNC(=O)c5cccc(NC(=O)OCc6ccccc6)c5)cc4)nc32)[C@H](O)[C@@H]1O", "quantity.measured": "pKi", "data.value": 7.92}
{"structure.smiles": "CCNC(=O)[C@H]1O[C@@H](n2cnc3c(N)nc(NCCc4ccc(CCC(=O)NCCN)cc4)nc32)[C@H](O)[C@@H]1O", "quantity.measured": "pKi", "data.value": 7.92}
